Assay Metric: melting point

CCCCCCCCNc1nc2sc(CCCC)cc2c(=O)o1	93 to 94 °C
CCCCCCCCCCCCNc1nc2sc(C(=O)NCCCCCCCC)c(C)c2c(=O)o1	137.1 to 138 °C
CCCCCCN(C)c1nc2sc(C(=O)OCc3ccccc3)c(C)c2c(=O)o1	86 to 88 °C
CCCCCCCCNc1nc2sc(C(=O)NCC(C)(C)C)c(C)c2c(=O)o1	173 to 174.5 °C
CCCCCCCCNc1nc2sc(C(=O)OC(CCCC)CCCC)c(C)c2c(=O)o1	90 to 92 °C

Lab book: melting point of "CCCCCCCCNc1nc2sc(C(=O)N3CCC(Cc4ccccc4)CC3)c(C)c2c(=O)o1" noted as 100 to 106 °C

The molecule listed as "CCCCCCCCNc1nc2sc(C(=O)N3CCc4cc(OC)c(OC)cc4C3)c(C)c2c(=O)o1" shows melting point equal to 77 to 80 °C

Looking up "CCCCCCCCNc1nc2sc(CCCCCCC)cc2c(=O)o1" , I see its melting point listed as 89 to 91 °C

Memo: "CCCCCCCCNc1nc2sc(Cc3ccccc3)cc2c(=O)o1" , reported melting point: 123 to 124 °C

----------
Target Under Test: type VI-S porcine pancreatic lipase (Sus scrofa, UniProt P00591)
Construct: purchased Sigma type VI-S (catalogue number not given)
Sequence (P00591 whole entry): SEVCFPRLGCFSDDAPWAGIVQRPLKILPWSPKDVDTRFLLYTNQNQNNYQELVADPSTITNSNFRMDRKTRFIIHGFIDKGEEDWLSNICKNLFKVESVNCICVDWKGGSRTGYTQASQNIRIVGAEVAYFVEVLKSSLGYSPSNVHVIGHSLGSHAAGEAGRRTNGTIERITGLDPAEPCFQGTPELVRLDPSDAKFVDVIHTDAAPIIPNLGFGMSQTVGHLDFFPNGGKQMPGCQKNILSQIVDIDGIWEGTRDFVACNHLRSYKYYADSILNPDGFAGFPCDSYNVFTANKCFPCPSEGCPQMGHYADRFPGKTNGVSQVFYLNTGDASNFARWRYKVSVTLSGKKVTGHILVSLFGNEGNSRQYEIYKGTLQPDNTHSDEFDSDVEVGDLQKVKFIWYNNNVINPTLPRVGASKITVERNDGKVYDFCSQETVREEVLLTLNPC
Measurement Description: Pancreatic lipase assay (pH-stat titration, triolein substrate)
Format: biochemical
Conditions Used: 7.0 nM lipase, 700 nM inhibitor, pH 8.0; k fitted for the 12.5 min after inhibitor addition, Y=Ymax*(1-exp(-k*X))
Readings of k for the listed compounds

CCCCCCCNc1nc2sc(C(=O)OCc3ccccc3)c(C)c2c(=O)o1	7.74 10-3.s-1
CCCCCCCCOc1nc2sc(C(=O)OCc3ccccc3)c(C)c2c(=O)o1	0.649 10-3.s-1

Entry "CCCCCCCCNc1nc2sc(C(=O)NCC(C)(C)C)c(C)c2c(=O)o1" , k reported as 0.723 10-3.s-1

Input "CCCCCCCCNc1nc2sc(C(=O)NC3CCCCC3)c(C)c2c(=O)o1" . Output k: 2.173 10-3.s-1

Short answer for "CCCCCCCCNc1nc2sc(C(=O)NCCCOc3ccccc3)c(C)c2c(=O)o1" : k was 1.667 10-3.s-1

Record "CCCCCCCCNc1nc2sc(C(=O)N(C)C)c(C)c2c(=O)o1" , field k: 0.537 10-3.s-1

Entry "CCCCCCCCNc1nc2sc(C(=O)NCc3ccco3)c(C)c2c(=O)o1" , k reported as 1.257 10-3.s-1

Quick note, k for "CCCCCCCCNc1nc2sc(C(=O)NCC)c(C)c2c(=O)o1" landed at 0.547 10-3.s-1

// "CCCCCCCCCCCCCCNc1nc2sc(C(=O)NCCCCCCCC)c(C)c2c(=O)o1" : k value = 1.629 10-3.s-1

Recorded k (compound "CCCCCCCCNc1nc2sc(C(=O)NCCCOC)c(C)c2c(=O)o1" ): 0.794 10-3.s-1

// k lookup, compound = "CCCCCCCCNc1nc2sc(C(=O)NCCCC)c(C)c2c(=O)o1" , result: 2.447 10-3.s-1

Measured k of "CCCCCCCCNc1nc2sc(C(=O)NCc3cccnc3)c(C)c2c(=O)o1" : 1.544 10-3.s-1

So, "CCCCCCCCCCCCNc1nc2sc(C(=O)NCCCCCCCC)c(C)c2c(=O)o1" ? Its k was 1.849 10-3.s-1

response.value for "CCCCCCCCNC(=O)c1sc2nc(NCCCCCCCC)oc(=O)c2c1C" (field: k) = 1.036 10-3.s-1

# k of "CCCCCCCOC(=O)c1sc2nc(OCCCCCCC)oc(=O)c2c1C" = 1.349 10-3.s-1

k for "CCCCCCCCOc1nc2sc(C(=O)O)c(C)c2c(=O)o1" is 0.547 10-3.s-1

----------
Target Under Test: type VI-S porcine pancreatic lipase (Sus scrofa, UniProt P00591)
Construct: purchased Sigma type VI-S (catalogue number not given)
Measurement Description: Pancreatic lipase assay (pH-stat titration, triolein substrate)
Type: biochemical
Conditions Used: 7.0 nM lipase, 700 nM inhibitor, pH 8.0; k fitted for the 12.5 min after inhibitor addition, Y=Ymax*(1-exp(-k*X))
Description: The use of a pancreatic lipase assay has been described in the literature (Hadvary, P. et al. Biochem. J. (1988) 256: 357-361; Hadvary, P. et al. Biochem. J. (1991) 266:2021-2027). Pancreatic lipase activity was measured using a 718 Stat Titrino (Brinkmann) programmed to maintain a pH of 8.0 using 0.1 N NaOH. […]
Assay Metric: k

CCCCCCCCOc1nc2sc(CCCCCC)cc2c(=O)o1	3.033 10-3.s-1
CCCCCCCCNc1nc2sc(C(=O)N(CC)CCc3ccccn3)c(C)c2c(=O)o1	0.012 10-3.s-1
CCCCCCCCNc1nc2sc(C(=O)NCCOC)c(C)c2c(=O)o1	1.102 10-3.s-1

The recorded k for CCCCCCC(C)Nc1nc2sc(C(=O)OCc3ccccc3)c(C)c2c(=O)o1 (stereo not drawn) is 0.086 10-3.s-1

k measured on "CCCCCCCCNc1nc2sc(CCCCCCC)cc2c(=O)o1" = 0.247 10-3.s-1

// field: k; key: "CCCCCCCCNc1nc2sc(C(=O)NCC(C)C)c(C)c2c(=O)o1" ; value = 0.702 10-3.s-1

k reading for "CCCCCCCCOc1nc2sc(Cc3ccccc3)cc2c(=O)o1" : 0.392 10-3.s-1

Record "CCCCCCCCOC(=O)c1sc2nc(OCCCCCCCC)oc(=O)c2c1C" , field k: 0.924 10-3.s-1

Record "CCCCCCCCNC(=O)Nc1sc(C(=O)N2CCN(Cc3ccccc3)CC2)c(C)c1C(=O)O" , field k: 0.574 10-3.s-1

The reported k of the compound "CCCCCCCCNc1nc2sc(C(=O)N3CCc4cc(OC)c(OC)cc4C3)c(C)c2c(=O)o1" was 0.284 10-3.s-1

Recorded k (compound "CCCCCCCCNc1nc2sc(C(=O)OCCCCCCCC)c(C)c2c(=O)o1" ): 0.922 10-3.s-1

----------
Catalogue of melting point readings, one per entry.

Guide cases for melting point, answers given:
CCCCCCCCNc1nc2sc(C(=O)NCCCc3ccccc3)c(C)c2c(=O)o1	139 to 141 °C
CCCCCCCCOc1nc2sc(CCCCCCCC)c(C)c2c(=O)o1	36 °C

Form field melting point, entry "CCCCCCCCCCCCCCNc1nc2sc(C(=O)NCCCCCCCC)c(C)c2c(=O)o1" : 145 to 145.8 °C

Measured melting point, "CCCCCCCCNC(=O)c1sc2nc(NCCCCCCCC)oc(=O)c2c1C" : 152 to 152.8 °C

Recorded result, "CCCCCCCCNc1nc2sc(C(=O)NCC(=O)OCc3ccccc3)c(C)c2c(=O)o1" , melting point: 147 to 149 °C

----------
Target Under Test: type VI-S porcine pancreatic lipase (Sus scrofa, UniProt P00591)
Construct: purchased Sigma type VI-S (catalogue number not given)
Measurement Description: Pancreatic lipase assay (pH-stat titration, triolein substrate)
Type: biochemical
Conditions Used: 7.0 nM lipase, 700 nM inhibitor, pH 8.0; k fitted for the 12.5 min after inhibitor addition, Y=Ymax*(1-exp(-k*X))
Description: The use of a pancreatic lipase assay has been described in the literature (Hadvary, P. et al. Biochem. J. (1988) 256: 357-361; Hadvary, P. et al. Biochem. J. (1991) 266:2021-2027). Pancreatic lipase activity was measured using a 718 Stat Titrino (Brinkmann) programmed to maintain a pH of 8.0 using 0.1 N NaOH. […]
Assay Metric: k

CCCCCCCCNc1nc2sc(C(=O)N(CCCC)CCCC)c(C)c2c(=O)o1	0.146 10-3.s-1
CCCCCCCCOc1nc2sc(CCCCCCC)cc2c(=O)o1	5.825 10-3.s-1
CCCCCCCOc1nc2sc(C(=O)OCc3ccccc3)c(C)c2c(=O)o1	1.052 10-3.s-1

Turning to the following compound.
k reported for this compound "CCCCCCCCN(CCCCCCCC)c1nc2sc(C(=O)OCc3ccccc3)c(C)c2c(=O)o1" : 0.013 10-3.s-1

----------
Assay Metric: melting point

Recorded results for 4 molecules are shown here.
CCCCCCCCNc1nc2sc(C(=O)OCc3ccccc3)c(C)c2c(=O)o1 [Entry 16]	153.5 to 154 °C
CCCCCCCCCCCCCCCCNc1nc2sc(C(=O)NCCCCCCCC)c(C)c2c(=O)o1 [Entry 26]	146.3 to 147 °C
CCCCCCCCCCc1cc2c(=O)oc(Oc3ccc(CCCC)cc3)nc2s1 [Entry 102]	55 to 58 °C
CCCCC(CCCC)Nc1nc2sc(C(=O)OCc3ccccc3)c(C)c2c(=O)o1 [Entry 59]	136 to 138 °C

Consider the record given below.
Looking up CCCCCCCCCCc1cc2c(=O)oc(OCCOC)nc2s1 [Entry 96] , I see its melting point listed as 38 to 41 °C
